# run.description: Luminescence Cell-Based Dose Confirmation HTS to Identify Inhibitors of Platelet Dense Granule Release. [Related pubchem assays: 1663 (Primary HTS), 1678 (Summary of Project)]
# Type: functional
Active and inactive are the calls of the source.
Record form. Attribute: EC50. Fill in for each entry.

Annotate the compound `N#Cc1nc(Cc2ccccc2)oc1N1CCCC1` with its measured EC50.
> 112 µM (not active)

Annotate the compound `COc1cccc(/C=N/Nc2ccnc(O)n2)c1O` with its measured EC50.
10.7 µM (active)

Annotate the compound `COc1cc2c(cc1OC)-c1cc(N3CCCc4ccccc43)nc(=O)n1CC2` with its measured EC50.
3.35 µM (active)

----------
# measured.target: Luciferin 4-monooxygenase (Photinus pyralis, UniProt P08659)
# Sequence (P08659 whole entry): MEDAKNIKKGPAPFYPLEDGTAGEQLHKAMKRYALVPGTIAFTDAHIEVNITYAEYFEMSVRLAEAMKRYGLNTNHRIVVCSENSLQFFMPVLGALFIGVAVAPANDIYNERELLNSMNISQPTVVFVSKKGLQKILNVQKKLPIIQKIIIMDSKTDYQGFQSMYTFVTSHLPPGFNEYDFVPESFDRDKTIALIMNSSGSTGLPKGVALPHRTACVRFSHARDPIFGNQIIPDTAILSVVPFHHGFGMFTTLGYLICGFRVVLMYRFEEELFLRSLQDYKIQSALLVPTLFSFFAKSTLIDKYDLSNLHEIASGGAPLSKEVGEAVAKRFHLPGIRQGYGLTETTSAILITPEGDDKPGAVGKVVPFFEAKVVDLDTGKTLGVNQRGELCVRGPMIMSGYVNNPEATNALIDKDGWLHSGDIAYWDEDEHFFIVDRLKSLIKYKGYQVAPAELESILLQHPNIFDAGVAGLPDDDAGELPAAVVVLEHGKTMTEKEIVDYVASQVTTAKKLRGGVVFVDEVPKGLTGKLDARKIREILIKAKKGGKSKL
# run.description: inhibition of purified Photinus pyralis luciferase – biochemical, luminescence, dose response (AID 1891)
Calls of active or inactive are those of the source.
measured.parameter: EC50

Annotate the molecule `COc1ccc(/N=C/C2=C(O)c3ccccc3C2=O)c(OC)c1` with its measured EC50.
1.21 µM (active)

Annotate the molecule `O=C(Nc1cccc(O)c1)c1noc2c1CCc1ccccc1-2` with its measured EC50.
1.03 µM (active)

Annotate the molecule `O=C(c1ccc(S(=O)(=O)Nc2ccccc2)cc1)N1CCCC1` with its measured EC50.
> 112 µM (not active)

Annotate the molecule `COc1ccc(Br)cc1CNC(=O)c1ccc2c(c1)N(C)CCS2` with its measured EC50.
> 112 µM (not active)

----------
# measured.target: Long-chain-fatty-acid--AMP ligase FadD28 (Mycobacterium tuberculosis, UniProt P9WQ59)
# Sequence (P9WQ59 whole entry): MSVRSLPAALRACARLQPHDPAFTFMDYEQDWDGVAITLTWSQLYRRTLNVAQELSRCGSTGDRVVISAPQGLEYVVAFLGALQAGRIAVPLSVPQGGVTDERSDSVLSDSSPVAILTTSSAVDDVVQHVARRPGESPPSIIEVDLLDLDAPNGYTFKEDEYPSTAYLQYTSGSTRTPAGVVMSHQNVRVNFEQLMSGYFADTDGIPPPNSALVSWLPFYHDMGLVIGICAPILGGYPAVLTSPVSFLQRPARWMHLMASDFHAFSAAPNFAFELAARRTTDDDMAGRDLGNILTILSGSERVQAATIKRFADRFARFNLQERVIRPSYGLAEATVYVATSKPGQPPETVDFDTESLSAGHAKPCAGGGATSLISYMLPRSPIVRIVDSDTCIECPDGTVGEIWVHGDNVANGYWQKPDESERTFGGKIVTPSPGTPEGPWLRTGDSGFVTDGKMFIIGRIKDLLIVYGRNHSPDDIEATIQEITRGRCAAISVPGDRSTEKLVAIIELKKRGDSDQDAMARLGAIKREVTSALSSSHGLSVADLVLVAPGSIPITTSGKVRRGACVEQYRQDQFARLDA
# run.description: Fluorescence polarization aasay to screen for inhibitors that compete for the binding of FadD28 to a bisubstrate Measured in Biochemical System Using Plate Reader - 2147-01_Inhibitor_Dose_CherryPick_Activity.
# Format: functional, Mycobacterium tuberculosis H37Rv
Active and inactive are the calls of the source.
In this exercise, the only acceptable responses are 1 (yes) (active), 0 (no) (inactive)

Please let me know the test result on file for `CC(=O)Nc1ccc(/N=C(/C2=C(O)c3ccccc3C2=O)c2ccccc2)cc1` .
0 (no)

Please let me know the test result on file for COc1cccc(C2CC(c3ccccc3)=NN2S(=O)(=O)c2ccccc2)c1OC (centres undefined) .
1 (yes)

Please let me know the test result on file for O=C1CCCC2=C1C(c1ccc(Cl)cc1)C1C(=O)c3ccccc3C1=N2 (centres undefined) .
0 (no)

Please let me know the test result on file for `COc1ccc(C(=O)NCc2ccc(C)cc2)cc1S(=O)(=O)N1CCCC1` .
1 (yes)
